tested_on: human TLR9 (Homo sapiens, UniProt Q9NR96)
protocol_text: TLR9 inhibition reporter assay (HEK-Blue cells, SEAP reporter, ODN2006 stimulation)
experimental_conditions: HEK-Blue cells overexpressing human TLR9, SEAP reporter, ODN2006 5 nM
experimental_readout: IC50

Some compounds with known IC50 results, for comparison:
Cc1cc(-c2[nH]c3ccc(C4CCN(C(=O)CN(C)C)CC4)cc3c2C(C)C)cc2cccnc12
1000 to 50000 nM
CC(C)c1c(-c2ccn3nncc3c2)[nH]c2ccc(C3CCN(C4COC4)CC3)cc12
1000 to 50000 nM
Cc1nc2cc(-c3[nH]c4ccc(C5CCN(C(=O)[C@@H]6C[C@@H](O)CN6)CC5)cc4c3C(C)C)ccn2n1
1000 to 50000 nM
COc1c(C)c(-c2[nH]c3ccc(C4CCN(C5CCOCC5)CC4)cc3c2C(C)C)nn2ncnc12
1000 to 50000 nM

Tell me reported IC50 for `CC(C)c1c(-c2ccc(C#N)c3ncccc23)[nH]c2ccc(C3CCN(CCS(C)(=O)=O)CC3)cc12` , tested with human TLR9 (Homo sapiens, UniProt Q9NR96).
1000 to 50000 nM

Return IC50 measured with human TLR9 (Homo sapiens, UniProt Q9NR96) given this compound: `Cc1cc(-c2[nH]c3ccc(C4CCN(C5CCOCC5)CC4)cc3c2C(C)C)cc2cncn12`
100 to 1000 nM

Write down the reported IC50 of `Cc1cc2nnnn2cc1-c1[nH]c2ccc(C3CCN(Cc4ccn(C)n4)CC3)cc2c1C(C)C` , test system: human TLR9 (Homo sapiens, UniProt Q9NR96).
1000 to 50000 nM

# get_value(readout= IC50, system= human TLR9 (Homo sapiens, UniProt Q9NR96)) for `Cc1c(-c2[nH]c3ccc(C4CCNCC4)cc3c2C(C)C)cn2ccnc2c1C`
100 to 1000 nM

Find the measured IC50: item `CC(C)c1c(-c2ccc3ncc(C#N)n3c2)[nH]c2ccc(C3CCNCC3)cc12` , target or system human TLR9 (Homo sapiens, UniProt Q9NR96).
1000 to 50000 nM

###

tested_on: human TLR8 (Homo sapiens, UniProt Q9NR97)
Construct: host or cells: HEK-Blue cells (HEK293-derived reporter line)
Sequence (Q9NR97 27-1041): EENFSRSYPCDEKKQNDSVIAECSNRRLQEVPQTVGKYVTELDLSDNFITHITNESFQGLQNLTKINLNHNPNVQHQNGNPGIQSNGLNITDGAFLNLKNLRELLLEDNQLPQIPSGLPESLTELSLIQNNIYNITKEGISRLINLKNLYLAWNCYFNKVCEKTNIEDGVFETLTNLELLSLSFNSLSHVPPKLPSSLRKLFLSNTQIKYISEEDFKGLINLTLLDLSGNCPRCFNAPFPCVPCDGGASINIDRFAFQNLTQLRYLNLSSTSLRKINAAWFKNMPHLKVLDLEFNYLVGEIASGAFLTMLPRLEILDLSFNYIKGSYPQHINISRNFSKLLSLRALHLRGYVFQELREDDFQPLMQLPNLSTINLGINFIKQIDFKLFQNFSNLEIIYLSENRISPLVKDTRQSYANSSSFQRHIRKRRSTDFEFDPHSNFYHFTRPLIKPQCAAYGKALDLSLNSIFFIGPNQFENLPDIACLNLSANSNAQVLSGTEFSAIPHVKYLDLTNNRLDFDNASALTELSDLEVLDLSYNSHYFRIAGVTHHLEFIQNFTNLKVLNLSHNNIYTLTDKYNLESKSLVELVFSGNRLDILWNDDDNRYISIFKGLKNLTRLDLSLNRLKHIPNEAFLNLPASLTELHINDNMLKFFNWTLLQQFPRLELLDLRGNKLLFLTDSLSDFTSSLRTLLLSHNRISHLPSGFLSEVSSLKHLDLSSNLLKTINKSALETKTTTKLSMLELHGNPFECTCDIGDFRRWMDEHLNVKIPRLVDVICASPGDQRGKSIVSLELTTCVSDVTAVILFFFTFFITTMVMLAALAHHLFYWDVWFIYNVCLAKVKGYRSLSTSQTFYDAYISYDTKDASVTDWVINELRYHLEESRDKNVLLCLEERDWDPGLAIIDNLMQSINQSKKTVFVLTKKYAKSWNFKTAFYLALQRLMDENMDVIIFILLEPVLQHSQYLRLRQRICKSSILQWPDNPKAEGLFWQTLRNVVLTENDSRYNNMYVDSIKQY
protocol_text: TLR8 inhibition reporter assay (HEK-Blue cells, SEAP reporter, R848 stimulation)
Format: cell-based
experimental_conditions: HEK-Blue cells overexpressing human TLR8, SEAP reporter, R848 15.9 μM
pIC50: −log10 of the molar value.
pIC50 values for the molecules below.

Worked cases, answers included:
CNCC(=O)N1CCC(c2ccc3[nH]c(-c4cc(F)c5nccn5c4)c(C(C)C)c3c2)CC1
6.00 to 7.00
CNCC(=O)N1CCC(c2ccc3[nH]c(-c4cnc5ccnn5c4)c(C(C)C)c3c2)CC1
< 5.51
CCc1c(-c2ccnc3[nH]nc(C)c23)[nH]c2ccc(C3CCNCC3)cc12
> 7.00
Cc1cc(-c2[nH]c3ccc(C4CCN(C(=O)CN(C)C)CC4)cc3c2C(C)C)c2ccccc2n1
> 7.00
Cc1cc(-c2[nH]c3ccc(C4CCNCC4)cc3c2C(C)C)cn2cc(C(=O)NCCO)nc12
> 7.00
Cc1cn2cc(-c3[nH]c4ccc(C5CCNCC5)cc4c3C(C)C)c(C)cc2n1
6.00 to 7.00

Can you share its pIC50? I mean this molecule: `CNC(=O)CN1CCC(c2ccc3[nH]c(-c4ccn5nc(C)cc5c4)c(C(C)C)c3c2)CC1`
4.30 to 6.00

Please give the measured pIC50 for this molecule: `CC(C)c1c(-c2ccnc3[nH]ncc23)[nH]c2ccc(C3CCN(C(=O)CN4CC[C@@H](N(C)C)C4)CC3)cc12`
> 7.00

###

tested_on: human TLR7 (Homo sapiens)
Sequence (Q9NYK1 27-1049): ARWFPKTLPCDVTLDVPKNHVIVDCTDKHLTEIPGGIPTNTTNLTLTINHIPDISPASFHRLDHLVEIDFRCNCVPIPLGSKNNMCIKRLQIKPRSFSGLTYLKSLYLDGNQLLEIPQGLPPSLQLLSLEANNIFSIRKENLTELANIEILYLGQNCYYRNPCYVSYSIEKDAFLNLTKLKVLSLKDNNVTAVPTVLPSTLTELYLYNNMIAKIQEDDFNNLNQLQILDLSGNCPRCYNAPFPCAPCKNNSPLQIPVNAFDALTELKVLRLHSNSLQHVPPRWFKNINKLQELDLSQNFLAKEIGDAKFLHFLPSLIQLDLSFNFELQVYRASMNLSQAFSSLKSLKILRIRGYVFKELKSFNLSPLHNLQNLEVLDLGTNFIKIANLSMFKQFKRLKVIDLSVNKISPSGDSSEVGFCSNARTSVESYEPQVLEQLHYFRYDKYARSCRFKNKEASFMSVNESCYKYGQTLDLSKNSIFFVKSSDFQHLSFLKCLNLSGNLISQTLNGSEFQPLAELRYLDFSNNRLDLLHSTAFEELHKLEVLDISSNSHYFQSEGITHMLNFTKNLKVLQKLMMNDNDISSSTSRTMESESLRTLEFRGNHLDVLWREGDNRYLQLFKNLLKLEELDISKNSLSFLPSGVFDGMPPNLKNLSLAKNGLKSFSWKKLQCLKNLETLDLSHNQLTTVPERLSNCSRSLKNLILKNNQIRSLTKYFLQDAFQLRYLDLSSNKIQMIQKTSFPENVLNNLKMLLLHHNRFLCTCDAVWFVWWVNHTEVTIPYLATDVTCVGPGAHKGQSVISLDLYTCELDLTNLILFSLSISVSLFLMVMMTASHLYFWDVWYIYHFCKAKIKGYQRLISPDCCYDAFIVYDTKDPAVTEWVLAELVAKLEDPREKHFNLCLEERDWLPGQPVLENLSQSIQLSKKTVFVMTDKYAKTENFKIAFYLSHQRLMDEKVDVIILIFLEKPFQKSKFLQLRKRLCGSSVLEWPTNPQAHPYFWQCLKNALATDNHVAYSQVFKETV
protocol_text: TLR7 inhibition reporter assay (HEK-Blue cells, SEAP reporter, gardiquimod stimulation)
experimental_conditions: HEK-Blue cells overexpressing human TLR7, SEAP reporter, gardiquimod 7.5 μM
Below, each entry is listed alongside its reported IC50.

CC(C)c1c(-c2ccnc3[nH]ncc23)[nH]c2ccc(C3CCN(Cc4cnc5ccccc5c4)CC3)cc12
100 to 1000 nM
Cc1cc(-c2[nH]c3ccc(C4CCN(C5COC5)CC4)cc3c2C(C)C)cc2[nH]c(=O)oc12
100 to 1000 nM
CC(C)c1c(-c2ccc3ncnn3n2)[nH]c2ccc(C3CCN(C4COC4)CC3)cc12
< 100 nM
Cc1cc2nccn2cc1-c1[nH]c2ccc(C3CCN(C4CCN(C(C)C)CC4)CC3)cc2c1C(C)C
< 100 nM
CC(C)c1c(-c2cnc3ncnn3c2)[nH]c2ccc(C3CCN(CC(=O)N(C)C)CC3)cc12
< 100 nM

IC50 for `CCc1c(-c2ccnc3[nH]ncc23)[nH]c2ccc(C3CCN(C4CCN(C(C)C)CC4)CC3)cc12` ?
< 100 nM

Consider the compound `CC(C)c1c(-c2cc(Cl)c3ncccc3c2)[nH]c2ccc(C3CCN(CC(=O)N(C)C)CC3)cc12` and give its measured IC50.
< 100 nM

###

tested_on: human TLR9 (Homo sapiens, UniProt Q9NR96)
Sequence (Q9NR96 26-1032): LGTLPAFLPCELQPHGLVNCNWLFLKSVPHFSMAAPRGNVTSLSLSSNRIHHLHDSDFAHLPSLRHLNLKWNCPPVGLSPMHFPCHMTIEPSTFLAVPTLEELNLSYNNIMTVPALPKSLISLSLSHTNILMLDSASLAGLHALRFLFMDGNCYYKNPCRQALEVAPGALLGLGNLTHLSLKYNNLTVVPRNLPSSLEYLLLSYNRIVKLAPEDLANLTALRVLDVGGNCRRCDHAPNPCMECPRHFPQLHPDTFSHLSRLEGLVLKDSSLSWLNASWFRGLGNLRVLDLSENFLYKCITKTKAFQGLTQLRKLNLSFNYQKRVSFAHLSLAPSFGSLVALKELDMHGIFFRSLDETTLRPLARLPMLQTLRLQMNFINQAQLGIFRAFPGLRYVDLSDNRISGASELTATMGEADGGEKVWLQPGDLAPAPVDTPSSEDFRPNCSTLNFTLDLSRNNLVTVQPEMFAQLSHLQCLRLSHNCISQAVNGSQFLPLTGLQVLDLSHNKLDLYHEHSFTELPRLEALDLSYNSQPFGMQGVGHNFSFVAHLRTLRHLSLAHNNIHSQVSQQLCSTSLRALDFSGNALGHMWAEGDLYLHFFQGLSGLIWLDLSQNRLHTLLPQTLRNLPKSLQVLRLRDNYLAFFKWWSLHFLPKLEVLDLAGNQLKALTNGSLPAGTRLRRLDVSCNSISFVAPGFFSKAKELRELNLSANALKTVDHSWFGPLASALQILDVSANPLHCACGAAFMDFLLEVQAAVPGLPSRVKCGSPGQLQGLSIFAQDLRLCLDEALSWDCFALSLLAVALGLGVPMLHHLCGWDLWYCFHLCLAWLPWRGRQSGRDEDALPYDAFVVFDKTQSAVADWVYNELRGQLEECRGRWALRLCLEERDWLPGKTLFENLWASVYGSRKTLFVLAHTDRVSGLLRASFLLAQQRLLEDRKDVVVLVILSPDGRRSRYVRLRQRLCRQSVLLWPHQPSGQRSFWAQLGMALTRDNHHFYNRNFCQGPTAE
protocol_text: TLR9 inhibition reporter assay (HEK-Blue cells, SEAP reporter, ODN2006 stimulation)
experimental_conditions: HEK-Blue cells overexpressing human TLR9, SEAP reporter, ODN2006 5 nM
pIC50: −log10 of the molar value.
experimental_readout: pIC50

Consider the worked cases shown below.
Cc1cn2cc(-c3[nH]c4ccc(C5CCN(C(=O)CC(C)O)CC5)cc4c3C(C)C)c(C)cc2n1 (stereo not shown) [Example 596]
4.30 to 6.00
Cc1cc2cc(-c3[nH]c4ccc(C5CCNCC5)cc4c3C(C)C)ccn2n1 [Example 145]
4.30 to 6.00
COc1cc(-c2[nH]c3ccc(C4CCN(CC#N)CC4)cc3c2C(C)C)cn2ccnc12 [Example 950]
6.00 to 7.00
Cc1ccc(-c2[nH]c3ccc(C4CCN(C(=O)C[C@H](C)O)CC4)cc3c2C(C)C)c2ncnn12 [Example 599]
4.30 to 6.00
Cc1cc(-c2[nH]c3ccc(C4CCN(CC(C)(C)O)CC4)cc3c2C(C)C)cc2ncnn12 [Example 756]
4.30 to 6.00
COc1cc(-c2[nH]c3ccc(C4CCN(C5COC5)CC4)cc3c2C(C)C)cn2ccnc12 [Example 722]
4.30 to 6.00
CNC(=O)CN1CCC(c2ccc3[nH]c(-c4cc(C)c5nn(C)cc5c4)c(C(C)C)c3c2)CC1 [Example 378]
4.30 to 6.00
COc1cc(-c2[nH]c3ccc(C4CCN(C5COC5)CC4)cc3c2C(C)C)cc2nccn12 [Example 712]
6.00 to 7.00
COC(=O)c1c(-c2ccnc3[nH]ncc23)[nH]c2ccc(C3CCNCC3)cc12 [Example 174]
4.30 to 6.00
Cc1nc(CN2CCC(c3ccc4[nH]c(-c5ccnc6[nH]ncc56)c(C(C)C)c4c3)CC2)c2ccccn12 [Example 868]
6.00 to 7.00

# lookup: pIC50 of CCc1c(-c2ccnc3[nH]cc(C(C)C)c23)[nH]c2ccc(C3CCNCC3)cc12 [Example 221]
6.00 to 7.00

Item CC(C)c1c(-c2ccnc3[nH]ncc23)[nH]c2ccc(C3CCN(C(=O)Cn4ccnc4)CC3)cc12 [Example 565] has what recorded pIC50?
4.30 to 6.00

pIC50 lookup needed for CCc1c(-c2ccnc3c(N)n[nH]c23)[nH]c2ccc(C3CCNCC3)cc12 [Example 238] , thanks.
4.30 to 6.00

Can you look up the measured pIC50 of CNCCN1CCC(c2ccc3[nH]c(-c4ccnc5[nH]ncc45)c(C(C)C)c3c2)C(F)C1 (stereo not shown) [Example 679] for me?
6.00 to 7.00

Quick check: pIC50 of CC(C)c1c(-c2ccc3nccn3c2)[nH]c2ccc(C3CCN(C4CCN(C(C)C)CC4)CC3)cc12 [Example 803] ?
6.00 to 7.00

Given the entry CC(C)N1CCC(c2ccc3[nH]c(-c4ccc5nccn5c4)c(CC(F)F)c3c2)CC1 [Example 948] , report its measured pIC50.
6.00 to 7.00

# input compound: CNCCN1CCC(c2ccc3[nH]c(-c4ccc5scnc5c4)c(C)c3c2)CC1 [compound 659] ; wanted: its pIC50
6.00 to 7.00

Find the recorded pIC50 belonging to CCc1c(-c2ccnc3[nH]ccc23)[nH]c2cc(C)c(C3CCN(C4CCN(C(C)C)CC4)CC3)cc12 [Example 840] and report it.
6.00 to 7.00

# pIC50 lookup, item Cc1c(-c2ccnc3[nH]cc(N)c23)[nH]c2ccc(C3CCNCC3)cc12 [Example 211]
4.30 to 6.00

Query: pIC50; subject: CNCCN1CCC(c2ccc3[nH]c(-c4ccc5ncnn5n4)c(C)c3c2)CC1 [Example 651]
> 7.00

Bench note: what pIC50 did CNC(=O)CN1CCC(c2ccc3[nH]c(-c4ccn5nccc5c4)c(C(C)C)c3c2)CC1 [Example 405] show?
4.30 to 6.00

Field request: pIC50 | item: CNC(=O)CN1CCC(c2ccc3[nH]c(-c4cn5nnnc5cc4C)c(C(C)C)c3c2)CC1 [Example 316]
4.30 to 6.00
